- tested on: T1, natriuretic peptide receptor-B (human)
- T1 chain: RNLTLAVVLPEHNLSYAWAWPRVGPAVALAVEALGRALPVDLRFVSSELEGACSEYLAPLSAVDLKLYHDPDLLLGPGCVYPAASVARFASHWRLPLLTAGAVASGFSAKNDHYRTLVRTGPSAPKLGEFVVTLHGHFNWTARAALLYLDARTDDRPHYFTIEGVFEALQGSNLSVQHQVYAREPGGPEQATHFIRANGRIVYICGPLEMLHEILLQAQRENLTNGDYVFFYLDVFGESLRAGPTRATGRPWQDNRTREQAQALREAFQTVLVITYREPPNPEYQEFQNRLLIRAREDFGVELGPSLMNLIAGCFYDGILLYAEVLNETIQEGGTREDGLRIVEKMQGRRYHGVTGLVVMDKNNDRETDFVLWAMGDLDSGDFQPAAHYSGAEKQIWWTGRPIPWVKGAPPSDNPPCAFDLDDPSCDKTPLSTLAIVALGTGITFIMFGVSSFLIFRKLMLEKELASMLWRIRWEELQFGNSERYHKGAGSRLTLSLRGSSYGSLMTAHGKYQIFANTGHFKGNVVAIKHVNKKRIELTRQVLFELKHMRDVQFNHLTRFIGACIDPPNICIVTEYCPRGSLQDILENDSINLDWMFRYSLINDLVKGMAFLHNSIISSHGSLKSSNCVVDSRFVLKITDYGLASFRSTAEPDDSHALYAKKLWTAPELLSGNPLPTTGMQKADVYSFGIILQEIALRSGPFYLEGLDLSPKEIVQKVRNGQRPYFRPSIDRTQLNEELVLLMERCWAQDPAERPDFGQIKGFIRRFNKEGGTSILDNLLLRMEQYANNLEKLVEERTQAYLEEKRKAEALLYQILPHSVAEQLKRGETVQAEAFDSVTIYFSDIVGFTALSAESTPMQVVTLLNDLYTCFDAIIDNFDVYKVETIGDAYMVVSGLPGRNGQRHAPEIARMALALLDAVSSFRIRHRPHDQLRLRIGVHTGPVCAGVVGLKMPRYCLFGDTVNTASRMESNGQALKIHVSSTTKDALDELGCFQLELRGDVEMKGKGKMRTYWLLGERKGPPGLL
- method description: cell-based or functional assay
Numbered stars: 1 amine (or outer) side, 2 acyl side, 3 side chain; on linkers, the order of the positions; unused ones are H or OH. Square brackets hold non-standard residues; d marks the D form. Ends that are not written are not given here. * marks the point of attachment. Pca = (2S,3R)-3-aminopyrrolidine-2-carboxylic acid, O=C([C@@H]1[C@H](N[*:3])CCN1[*:1])[*:2]; Sni = (S)-nipecotic acid, O=C([C@H]1CCCN([*:1])C1)[*:2]; Pro(trans-4-Ph) = O=C(O)[C@@H]1C[C@@H](c2ccccc2)CN1; Phe(4-Br) = N[C@@H](Cc1ccc(Br)cc1)C(=O)O; Gly(cPent) = N[C@H](C(=O)O)C1CCCC1; Hyp = O=C(O)[C@@H]1C[C@@H](O)CN1; dAoc(2) = CCCCCC[C@@H](N)C(=O)O; NMeL = CN[C@@H](CC(C)C)C(=O)O; Octanoyl = CCCCCCCC(=O)*; Adx = not defined here; Che = not defined here; leu = not defined here; Occ = octanoic acid
measure name: EC50 group, cGMP in GTM-3 cells

1. [Occ][Sni]F[leu]L[Hyp][Gly(cPent)]DRI-NH2 (reading uncertain; also: printed as Occ-Sni-Phe-leu-Leu-Hyp-Cpg-Asp-Arg-Ile-NH2) [JAL-1626] | ≤ 1 µM

Ask: Hello, please tell me recorded EC50 group, cGMP in GTM-3 cells for this one: [Occ][Sni]F[dL]L[Hyp][NMeL]D[Pca][Che] (reading uncertain; also: printed as Occ-Sni-Phe-leu-Leu-Hyp-Nml-Asp-Pca-Che) [JAL-1679]
Reply: ≤ 1 µM

Ask: Retrieve EC50 group, cGMP in GTM-3 cells measured for Octanoyl-[Sni][Pro(trans-4-Ph)][leu]L[Hyp][NMeL]DRI-NH2 (reading uncertain; also: printed as Occ-Sni-Eay-leu-Leu-Hyp-Nml-Asp-Arg-Ile-NH2) [JAL-1491] and print it.
Reply: ≤ 5 µM

Ask: State its EC50 group, cGMP in GTM-3 cells for this binder: Octanoyl-[dA][Phe(4-Br)][dR]L[Hyp]LDRI-NH2 [JAL-1116]
Reply: ≤ 1 µM

Ask: Give the value of EC50 group, cGMP in GTM-3 cells reported for the following: Octanoyl-[dA][dA]FGLKLDRI-NH2 [JAL-0701]
Reply: ≤ 5 µM

Ask: Read the entry H-[Adx][dAoc(2)][Sni]F[leu]L[Hyp][NMeL]DRI-NH2 (reading uncertain; also: printed as H-Adx-hgl-Sni-Phe-leu-Leu-Hyp-Nml-Asp-Arg-Ile-NH2) [JAL-1838] and write its reported EC50 group, cGMP in GTM-3 cells.
Reply: ≤ 5 µM
